Field: log Pow* (P′ 80%). Provide a value for each of the molecules that follow.
- Method description: log Pow* calculated by Formula 2 from log Pow and the polarity parameter P′(x) of the ethanol/water mixture
- Experimental setup: solvent ethanol, proportion 80%
Numbers only.

Example entries and their recorded answers appear below.
{"Molecule": "CCCCCCC1CCC(=O)O1 (stereo not shown)", "log Pow* (P′ 80%)": 0.75}
{"Molecule": "CC(=O)C(C)=O", "log Pow* (P′ 80%)": "−4.25"}
{"Molecule": "CC(=O)/C=C/C1C(C)=CCCC1(C)C (stereo not shown)", "log Pow* (P′ 80%)": 2.85}
{"Molecule": "C/C=C/C(=O)C1=C(C)C=CCC1(C)C", "log Pow* (P′ 80%)": 3.52}
{"Molecule": "CCOC(=O)C(C)CC (stereo not shown) [Ethylmethylbutyrate-2]", "log Pow* (P′ 80%)": 0.75}

Could you report log Pow* (P′ 80%) for every entry in the following list?
1. CCCCOC(C)=O [Butylacetate]
2. CC(=O)/C=C/C1=C(C)CCCC1(C)C
3. CCC/C=C/CO
4. CCC(C)CO (stereo not shown)
5. OCc1ccco1
6. CCC/C=C/C=O
7. CS
8. O=Cc1ccco1

1. −0.43
2. 2.84
3. −0.47
4. −1.73
5. −13.61
6. −0.81
7. −5.33
8. −4.60
